Recorded MIC for the following compounds
# Test system: Staphylococcus aureus
# Test Method Notes: Antibacterial activity against Staphylococcus aureus ATCC 25923 assessed as growth inhibition incubated for 18 hrs by broth dilution method
# Assay type: functional
# Protocol Conditions: ATCC 25923, 18 h
Value expressed in µM; do not type the unit.

Study these solved cases before continuing.
COC(=O)c1cccc2c(C(=O)C(=O)NCCCNCCCCNCCCNC(=O)C(=O)c3c[nH]c4c(C(=O)OC)cccc34)c[nH]c12.O=C(O)C(F)(F)F.O=C(O)C(F)(F)F: 25
O=C(NCCCNCCCCNCCCNC(=O)C(=O)c1c[nH]c2c(Cl)cccc12)C(=O)c1c[nH]c2c(Cl)cccc12.O=C(O)C(F)(F)F.O=C(O)C(F)(F)F: 50
N#Cc1ccc2[nH]cc(C(=O)C(=O)NCCCNCCCCNCCCNC(=O)C(=O)c3c[nH]c4ccc(C#N)cc34)c2c1.O=C(O)C(F)(F)F.O=C(O)C(F)(F)F: 100
Cc1cccc2c(C(=O)C(=O)NCCCNCCCCNCCCNC(=O)C(=O)c3c[nH]c4c(C)cccc34)c[nH]c12.O=C(O)C(F)(F)F.O=C(O)C(F)(F)F: 25
N#Cc1ccc2c(C(=O)C(=O)NCCCNCCCCNCCCNC(=O)C(=O)c3c[nH]c4cc(C#N)ccc34)c[nH]c2c1.O=C(O)C(F)(F)F.O=C(O)C(F)(F)F: 100
COc1ccc2[nH]cc(C(=O)C(=O)NCCCNCCCCNCCCNC(=O)C(=O)c3c[nH]c4ccc(OC)cc34)c2c1: 100

Exercise: Which MIC is listed for `O=C(NCCCNCCCCNCCCNC(=O)C(=O)c1c[nH]c2cc(Br)c(Br)cc12)C(=O)c1c[nH]c2cc(Br)c(Br)cc12.O=C(O)C(F)(F)F.O=C(O)C(F)(F)F` ?
Key: 25

Exercise: // MIC lookup, key: `Cc1ccc2[nH]cc(C(=O)C(=O)NCCCNCCCCNCCCNC(=O)C(=O)c3c[nH]c4ccc(C)cc34)c2c1.O=C(O)C(F)(F)F.O=C(O)C(F)(F)F`
Key: 25

Exercise: I am curious: what MIC value has been reported for `O=C(NCCCNCCCCNCCCNC(=O)C(=O)c1c[nH]c2cc(F)ccc12)C(=O)c1c[nH]c2cc(F)ccc12.O=C(O)C(F)(F)F.O=C(O)C(F)(F)F` ?
Key: 100

----------
CC50 at 20 h values, listed per item
# Test Method Notes: Cytotoxicity against human HEK293 cells measured after 20 hrs by resazurin dye based fluorescence assay
# Format: cell-based

Use the examples below as a reference point.
O=C(NCCCNCCCCNCCCNC(=O)C(=O)c1c[nH]c2ccccc12)C(=O)c1c[nH]c2ccccc12: > 41.5 µM
N#Cc1ccc2[nH]cc(C(=O)C(=O)NCCCNCCCCNCCCNC(=O)C(=O)c3c[nH]c4ccc(C#N)cc34)c2c1.O=C(O)C(F)(F)F.O=C(O)C(F)(F)F: > 38.9 µM
Cc1ccc2[nH]cc(C(=O)C(=O)NCCCNCCCCNCCCNC(=O)C(=O)c3c[nH]c4ccc(C)cc34)c2c1.O=C(O)C(F)(F)F.O=C(O)C(F)(F)F: > 40 µM
COc1ccc2c(C(=O)C(=O)NCCCNCCCCNCCCNC(=O)C(=O)c3c[nH]c4cc(OC)ccc34)c[nH]c2c1: > 38.4 µM
COC(=O)c1ccc2c(C(=O)C(=O)NCCCNCCCCNCCCNC(=O)C(=O)c3c[nH]c4cc(C(=O)OC)ccc34)c[nH]c2c1.O=C(O)C(F)(F)F.O=C(O)C(F)(F)F: > 36 µM

Exercise: Tell me the measured CC50 at 20 h of `COc1ccc2[nH]cc(C(=O)C(=O)NCCCNCCCCNCCCNC(=O)C(=O)c3c[nH]c4ccc(OC)cc34)c2c1` , please.
Key: > 38.4 µM

----------
Recorded MIC by entry
# System: Staphylococcus aureus
# Test Method Notes: Antibacterial activity against Staphylococcus aureus ATCC 25923 assessed as growth inhibition incubated for 18 hrs by broth dilution method
# Type: functional
# Protocol Conditions: ATCC 25923, 18 h

O=C(NCCCNCCCCNCCCNC(=O)C(=O)c1c[nH]c2ccccc12)C(=O)c1c[nH]c2ccccc12: > 100 µM
O=C(NCCCNCCCCNCCCNC(=O)C(=O)c1c[nH]c2cccc(F)c12)C(=O)c1c[nH]c2cccc(F)c12: > 70 µM
O=C(N[C@H](CO)[C@H](O)c1ccc([N+](=O)[O-])cc1)C(Cl)Cl [CHLORAMPHENICOL]: 1.5 to 3 µM
COc1ccc2c(C(=O)C(=O)NCCCNCCCCNCCCNC(=O)C(=O)c3c[nH]c4cc(OC)ccc34)c[nH]c2c1: > 100 µM
COC(=O)c1ccc2c(C(=O)C(=O)NCCCNCCCCNCCCNC(=O)C(=O)c3c[nH]c4cc(C(=O)OC)ccc34)c[nH]c2c1.O=C(O)C(F)(F)F.O=C(O)C(F)(F)F: > 200 µM

Could you now look at the following molecule, please?
Exercise: Which MIC is reported for this molecule? `O=C(NCCCNCCCCNCCCNC(=O)C(=O)c1c[nH]c2ccc(Cl)cc12)C(=O)c1c[nH]c2ccc(Cl)cc12.O=C(O)C(F)(F)F.O=C(O)C(F)(F)F`
Key: > 200 µM
